- TEST SUMMARY: Inhibition of Saccharomyces cerevisiae alpha-glucosidase using p-nitrophenyl-alpha-D-glucopyranoside as substrate preincubated for 15 mins
IC50 vs 500 µM: less than gives True; not less than gives False.

Reference set (8 entries):
- SMILES NOTATION: "COc1cc(O[C@@H]2O[C@H](CO[C@@H]3OC[C@@H](O)[C@H](O)[C@H]3O)[C@@H](O)[C@H](O)[C@H]2O)c2c(=O)c3c(OC)c(OC)ccc3oc2c1OC"
  ASSIGNED LABEL: "True"
- SMILES NOTATION: "COc1cc(O[C@@H]2O[C@H](CO[C@@H]3OC[C@@H](O)[C@H](O)[C@H]3O)[C@@H](O)[C@H](O)[C@H]2O)c2c(=O)c3c(OC)c(O)ccc3oc2c1OC"
  ASSIGNED LABEL: "False"
- SMILES NOTATION: "O=c1c2cc(O)c(O)cc2oc2cc(O)c([C@@H]3O[C@H](CO)[C@@H](O)[C@H](O)[C@H]3O)c(O)c12"
  ASSIGNED LABEL: "True"
- SMILES NOTATION: "COc1cc(O[C@@H]2O[C@H](CO[C@@H]3OC[C@@H](O)[C@H](O)[C@H]3O)[C@@H](O)[C@H](O)[C@H]2O)c2c(=O)c3c(O)c(OC)ccc3oc2c1"
  ASSIGNED LABEL: "True"
- SMILES NOTATION: "COc1cc(O)c2c(=O)c3c(O[C@@H]4O[C@H](CO)[C@@H](O)[C@H](O)[C@H]4O)ccc(O)c3oc2c1"
  ASSIGNED LABEL: "True"
- SMILES NOTATION: "COc1cc(O)c2c(=O)c3c(O[C@@H]4O[C@H](CO)[C@@H](O)[C@H](O)[C@H]4O)c(O[C@@H]4O[C@@H](C)[C@H](O)[C@@H](O)[C@H]4O)ccc3oc2c1"
  ASSIGNED LABEL: "False"
- SMILES NOTATION: "COc1cc(O[C@@H]2O[C@H](CO[C@@H]3O[C@H](CO)[C@@H](O)[C@H](O)[C@H]3O)[C@@H](O)[C@H](O)[C@H]2O)c2c(=O)c3c(O)ccc(OC)c3oc2c1"
  ASSIGNED LABEL: "False"
- SMILES NOTATION: "COc1cc(O[C@@H]2O[C@H](CO[C@@H]3OC[C@@H](O)[C@H](O)[C@H]3O)[C@@H](O)[C@H](O)[C@H]2O)c2c(=O)c3c(OC)c(OC)cc(OC)c3oc2c1"
  ASSIGNED LABEL: "True"

Okay, next one:
Query: Answer whether the molecule COc1cc(O[C@@H]2O[C@H](CO[C@@H]3O[C@H](CO)[C@@H](O)[C@H](O)[C@H]3O)[C@@H](O)[C@H](O)[C@H]2O)c2c(=O)c3cccc(OC)c3oc2c1 has IC50 strictly less than 500 µM
Response: False

* * *

Form field: IC50 (one value per entry).
- TEST SUMMARY: Inhibition of Saccharomyces cerevisiae alpha-glucosidase using p-nitrophenyl-alpha-D-glucopyranoside as substrate preincubated for 15 mins
Please give a number only; it is taken to be in µM.

In the examples that follow, each entry is paired with its recorded IC50.
- COMPOUND: "COc1cc(O[C@@H]2O[C@H](CO[C@@H]3OC[C@@H](O)[C@H](O)[C@H]3O)[C@@H](O)[C@H](O)[C@H]2O)c2c(=O)c3c(OC)ccc(OC)c3oc2c1"
  IC50 [µM]: 360
- COMPOUND: "COc1cc(O[C@@H]2O[C@H](CO)[C@@H](O)[C@H](O)[C@H]2O)c2c(=O)c3c(OC)c(O)ccc3oc2c1O"
  IC50 [µM]: 701
- COMPOUND: "C[C@H]1O[C@H](O[C@H]2[C@H](O)[C@@H](O)[C@@H](O[C@H]3[C@H](O)[C@@H](O)C(O)O[C@@H]3CO)O[C@@H]2CO)[C@H](O)[C@@H](O)[C@@H]1N[C@H]1C=C(CO)[C@@H](O)[C@H](O)[C@H]1O (stereo not given in full)"
  IC50 [µM]: 627

Turning now to a further record.
Query: Given COc1ccc(O)c2c(=O)c3c(O)cc(O[C@@H]4O[C@H](CO[C@@H]5OC[C@@H](O)[C@H](O)[C@H]5O)[C@@H](O)[C@H](O)[C@H]4O)c(OC)c3oc12 , state its recorded IC50.
Response: 184
